B1: glmS ribozyme (parent)
chain: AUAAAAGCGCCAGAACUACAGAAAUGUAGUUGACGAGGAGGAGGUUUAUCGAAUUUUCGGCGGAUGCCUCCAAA

Variants of: B1
Experiment: KM; higher = weaker cofactor use; RNA array
Details: with glucosamine-6-phosphate
Threshold rule: KM greater than or equal to 2000 µM is TRUE; below that, FALSE.

-- ask # bool: KM of U46G C67U >= 2000 µM
-- reply FALSE

-- ask # bool: KM of C11U U47C >= 2000 µM
-- reply FALSE

-- ask # bool: KM of A14C G32U >= 2000 µM
-- reply TRUE

-- ask # bool: KM of U46C U56A >= 2000 µM
-- reply FALSE

More entries:
-- ask # bool: KM of A14C A42G >= 2000 µM
-- reply TRUE

-- ask # bool: KM of U30A A33U >= 2000 µM
-- reply TRUE

-- ask # bool: KM of A12C U55A >= 2000 µM
-- reply FALSE

-- ask # bool: KM of U30A A42U >= 2000 µM
-- reply FALSE
